Hey, just so you know, these numbers are from the RepoRT retention time repository (doi:10.1007/s00216-021-03828-0).

# assay.notes: RP, Merck Supelco Ascentis Express C18, 100 × 2.1 mm, 2 µm, 40 °C, 0.35 mL/min, estimated dead time 0.63 min; A: water + 0.1% formic acid, pH 3; B: acetonitrile + 0.1% formic acid, pH 3; gradient (min/%B) 0/5 2/5 17/99.9 20/99.9
# condition.description: stereoisomer not certain

[
  {
    "molecule": "O=CCc1c[nH]c2ccccc12",
    "LC retention time, min": 2.45
  },
  {
    "molecule": "CCOC(=O)C(=O)C(C)C(=O)OCC (configuration not stated) [DIETHYL 2-METHYL-3-OXOSUCCINATE]",
    "LC retention time, min": 4.92
  },
  {
    "molecule": "O=C(O)c1ccc2ccccc2c1O [1-HYDROXY-2-NAPHTHOATE]",
    "LC retention time, min": 8.9
  },
  {
    "molecule": "O=C(O)c1cc(O)ccc1O [2,5-DIHYDROXYBENZOATE]",
    "LC retention time, min": 3.04
  },
  {
    "molecule": "O=C(O)Cc1ccc(O)c(O)c1 [3,4-DIHYDROXYPHENYLACETATE]",
    "LC retention time, min": 2.32
  },
  {
    "molecule": "CC(O)(CC(=O)O)CC(=O)O [3-HYDROXYMETHYLGLUTARATE]",
    "LC retention time, min": 0.893
  },
  {
    "molecule": "O=C(O)c1ccc(O)c(O)c1 [3,4-DIHYDROXYBENZOATE]",
    "LC retention time, min": 1.76
  },
  {
    "molecule": "CCCCCCCCCCCCCC(=O)O [MYRISTATE]",
    "LC retention time, min": 14.6
  },
  {
    "molecule": "NC(=O)Cc1c[nH]c2ccccc12 [INDOLE-3-ACETAMIDE]",
    "LC retention time, min": 4.51
  },
  {
    "molecule": "O=c1[nH]c(=O)c2ncn(C3OC(CO)C(O)C3O)c2[nH]1 (configuration not stated)",
    "LC retention time, min": 0.923
  },
  {
    "molecule": "OCC(O)c1ccc(O)c(O)c1 (configuration not stated) [3,4-DIHYDROXYPHENYLGLYCOL]",
    "LC retention time, min": 0.783
  },
  {
    "molecule": "CC(C)CC(=O)C(=O)O",
    "LC retention time, min": 0.88
  },
  {
    "molecule": "CSCCC(O)C(=O)O (configuration not stated) [2-HYDROXY-4-(METHYLTHIO)BUTANOATE]",
    "LC retention time, min": 2.15
  },
  {
    "molecule": "CC(CC(=O)O)CC(=O)O [METHYGLUTARATE]",
    "LC retention time, min": 2.21
  },
  {
    "molecule": "Nc1nc2c(ncn2C2CC(O)C(CO)O2)c(=O)[nH]1 (configuration not stated)",
    "LC retention time, min": 0.82
  },
  {
    "molecule": "CC1NCCc2cc(O)c(O)cc21 (configuration not stated)",
    "LC retention time, min": 0.82
  },
  {
    "molecule": "CCCCCCCCCCCCCCCCCC(=O)[O-] [STEARATE]",
    "LC retention time, min": 17.2
  },
  {
    "molecule": "c1ncc2[nH]cnc2n1",
    "LC retention time, min": 0.757
  },
  {
    "molecule": "CC(=O)c1ccc(O)cc1O [2',4'-DIHYDROXYACETOPHENONE]",
    "LC retention time, min": 5.5
  },
  {
    "molecule": "CC(=O)NCCc1c[nH]c2ccc(O)cc12",
    "LC retention time, min": 3.77
  },
  {
    "molecule": "COc1cc(C(O)CO)ccc1O (configuration not stated) [4-HYDROXY-3-METHOXYPHENYLGLYCOL]",
    "LC retention time, min": 1.21
  },
  {
    "molecule": "CC(=O)N1CCCC1C(=O)O (configuration not stated)",
    "LC retention time, min": 1.58
  }
]
